Just for reference, patent US20100222330A1 is where these values come from.

I'd appreciate it if you could supply % Inhibition of Food Intake in ob/ob mice at 50 mg/Kg/day, 15 h values for the items below.
test system: ob/ob mouse; assay: In vivo assay of reduction of food intake (15 h, osmotic minipump infusion); conditions: 50 mg/Kg/day, continuous subcutaneous infusion
I only need the number, in %, no unit after it.

Request: If you can, please state the reported % Inhibition of Food Intake in ob/ob mice at 50 mg/Kg/day, 15 h value of Cc1ccc(F)cc1S(=O)(=O)Nc1ccc(N2CCNCC2)c2ccccc12.Cl [Example 34] .
Response: 51.4

Request: Quick one: % Inhibition of Food Intake in ob/ob mice at 50 mg/Kg/day, 15 h of Cl.O=S(=O)(Nc1ccc(N2CCNCC2)c2ccccc12)c1ccc(Br)cc1 [Example 19] ?
Response: 69.6

Request: Fill in the blank: the reported % Inhibition of Food Intake in ob/ob mice at 50 mg/Kg/day, 15 h of Cl.O=S(=O)(Nc1ccc(N2CCNCC2)c2ccccc12)c1cccc2ccccc12 [Example 27] is ____.
Response: 68.9

Request: Endpoint output: % Inhibition of Food Intake in ob/ob mice at 50 mg/Kg/day, 15 h of Cl.O=S(=O)(Nc1ccc(N2CCNCC2)c2ccccc12)c1cccc(C(F)(F)F)c1 [Example 24] . Value?
Response: 46.2

Request: Fill in: % Inhibition of Food Intake in ob/ob mice at 50 mg/Kg/day, 15 h of Cl.O=S(=O)(Nc1ccc(N2CCNCC2)c2ccccc12)c1ccc2ccccc2c1 [Example 13] is ___
Response: 24.1

Request: Which % Inhibition of Food Intake in ob/ob mice at 50 mg/Kg/day, 15 h value belongs to Cc1c(Cl)cccc1S(=O)(=O)Nc1ccc(N2CCNCC2)c2ccccc12.Cl [Example 48] ?
Response: 23.8

Request: Could you tell me which % Inhibition of Food Intake in ob/ob mice at 50 mg/Kg/day, 15 h is on file for Cl.O=S(=O)(Nc1ccc(N2CCNCC2)c2ccccc12)c1ccc(Cl)cc1 [Example 30] ?
Response: 60.1

Request: GET /values?readout=% Inhibition of Food Intake in ob/ob mice at 50 mg/Kg/day, 15 h&item= COc1ccc(S(=O)(=O)Nc2ccc(N3CCNCC3)c3ccccc23)cc1.Cl [Example 29]
Response: 71

----------
Assay: Plasma drug concentration at steady state in the food intake study (LC/MS)
Assay type: in vivo
Parameters: unit not given here
Details: ob/ob mouse, trunk blood at end of study
Protocol: The weight of the food pellets are measured at 5 p.m. and at 8 p.m. for two days before (baseline) and one day after the implantation of the osmotic minipumps. The weigh-in is performed with a computer assisted Mettler Toledo PR 5002 balance. Occasional spillage is corrected for. At the end of the study the animals are killed by neck dislocation and trunk blood sampled for later analysis of plasma drug concentrations. […]
Would you mind telling me the reported Free plasma concentration of the compounds at steady state (Css, u) of each entry?
Give the value as a plain number.

Request: Record request: Free plasma concentration of the compounds at steady state (Css, u) value, item Cl.O=S(=O)(Nc1ccc(N2CCNCC2)c2ccccc12)c1cccc(C(F)(F)F)c1 [Example 24]
Response: 0.0076

Request: Query (compound): Cc1ccc(S(=O)(=O)N(C)c2ccc(N3CCNCC3)c3ccccc23)cc1.Cl [Example 14] ; field requested: Free plasma concentration of the compounds at steady state (Css, u)
Response: 0.23

Request: Given the entry Cc1ccc(F)cc1S(=O)(=O)Nc1ccc(N2CCNCC2)c2ccccc12.Cl [Example 34] , report its measured Free plasma concentration of the compounds at steady state (Css, u).
Response: 0.078

Request: I would be grateful if you could share the reported Free plasma concentration of the compounds at steady state (Css, u) for Cl.O=S(=O)(Nc1ccc(N2CCNCC2)c2ccccc12)c1ccc(Br)cc1 [Example 19] .
Response: 0.150

Request: Fill blank: measured Free plasma concentration of the compounds at steady state (Css, u) of the compound Cl.O=S(=O)(Nc1ccc(N2CCNCC2)c2ccccc12)c1cccc2ccccc12 [Example 27] is ____.
Response: 0.008

Request: Requested read-out: Free plasma concentration of the compounds at steady state (Css, u). Entry: Cc1c(Cl)cccc1S(=O)(=O)Nc1ccc(N2CCNCC2)c2ccccc12.Cl [Example 48]
Response: 0.008

Request: I am curious: what Free plasma concentration of the compounds at steady state (Css, u) value has been reported for Cl.O=S(=O)(Nc1ccc(N2CCNCC2)c2ccccc12)c1ccc2ccccc2c1 [Example 13] ?
Response: 0.035

Request: I am curious: what Free plasma concentration of the compounds at steady state (Css, u) value has been reported for Cl.O=S(=O)(Nc1ccc(N2CCNCC2)c2ccccc12)c1ccc(Cl)cc1 [Example 30] ?
Response: 0.275

Request: Could you tell me which Free plasma concentration of the compounds at steady state (Css, u) is on file for COc1ccc(S(=O)(=O)Nc2ccc(N3CCNCC3)c3ccccc23)cc1.Cl [Example 29] ?
Response: 0.33
